B1: SAM and SH3 domain-containing protein 1, residues 630 to 700; numbered along this chain, O94885 (parent)
chain: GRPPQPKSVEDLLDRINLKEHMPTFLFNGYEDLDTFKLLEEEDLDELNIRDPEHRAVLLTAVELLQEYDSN

Variants of: B1
Assay: abundance fitness (aPCA) (normalised: wild type 0, dead -1); higher = more abundant; growth selection in yeast, the domain comes from the species named
Settings: Homo sapiens
Label rule, in plain words: abundance fitness of -0.2 and up is yes (1), under -0.2 is no (0).

{"Variant Label": "L33V", "Cat": "no (0)"}
{"Variant Label": "T60H", "Cat": "yes (1)"}
{"Variant Label": "T24V", "Cat": "yes (1)"}
{"Variant Label": "Q5T", "Cat": "no (0)"}
{"Variant Label": "R55I", "Cat": "no (0)"}
{"Variant Label": "P3D", "Cat": "yes (1)"}
{"Variant Label": "E31H", "Cat": "yes (1)"}
{"Variant Label": "F27L", "Cat": "yes (1)"}
{"Variant Label": "L13P", "Cat": "no (0)"}
{"Variant Label": "E63D", "Cat": "yes (1)"}
{"Variant Label": "E31M", "Cat": "yes (1)"}
{"Variant Label": "L58F", "Cat": "no (0)"}
{"Variant Label": "E40N", "Cat": "yes (1)"}
{"Variant Label": "Q5N", "Cat": "yes (1)"}
{"Variant Label": "E10Y", "Cat": "no (0)"}
{"Variant Label": "V57H", "Cat": "yes (1)"}

This collection of values is drawn from the Human Domainome abundance scans (Beltran et al. 2025).
